Value source: paper PMC10572855

- System: HCoV OC43
- EXPERIMENT_NOTES: Cytopathic effect reduction, HCoV OC43
- Type: cell-based, Human coronavirus OC43
- RUN_CONDITIONS: Betacoronavirus 1, OC43; reduction of virus-induced cytopathic effect by 50%; virus input 100 TCID50; read-out: Antiviral Activity (EC50) HCoV OC43
pEC50: −log10 of the molar value.
What pEC50 was measured for each of the following?

{"COMPOUND": "CCCCCCOc1ccc2c(c1)nc1cc[nH]c(=O)n12 [Compound 6b]", "pEC50": "< 4.00"}
{"COMPOUND": "CCCCCCCCCCOc1ccc2c(c1)nc1cc[nH]c(=O)n12 [Compound 6d]", "pEC50": "< 4.00"}
{"COMPOUND": "O=c1n([C@H]2C[C@H](O)[C@@H](CO)O2)ccc2nc3cc(O)ccc3n12 [Compound 2a]", "pEC50": "< 4.00"}

Provide pEC50 for all items below, preserving their order.
1. CCC(CC)COC(=O)[C@H](C)N[P@](=O)(OC[C@H]1O[C@@](C#N)(c2ccc3c(N)ncnn23)[C@H](O)[C@@H]1O)Oc1ccccc1 [Remdesivir, reference compound]
2. O=c1n([C@@H]2O[C@H](CO)[C@@H](O)[C@H]2O)ccc2nc3cc(O)ccc3n12 [Compound 2b]

(A)
7.52
< 4.00
